Molecular target: RAC-alpha serine/threonine-protein kinase (Homo sapiens)
Experiment: Inhibition of PKB at 100 uM by radioactive kinase assay relative to control
Peptide text beside a SMILES is read from it.
Assignment: determine reported inhibition for the given molecules.
Write the value in % as a bare number.

### Prompt Look up inhibition: CCC[C@H](NC(=O)[C@H](CCCNC(=N)N)NC(=O)[C@@H]1CCCN1C(=O)[C@H](CCCNC(=N)N)NC(C)=O)C(=O)N[C@@H](Cc1ccc(O)cc1)C(=O)N[C@@H](CN)C(=O)N(C)[C@@H](CCC(C)C)C(=O)O (HELM PEPTIDE1{[ac].R.P.R.[Nva].Y.[NC[C@H](N[*:1])C(=O)[*:2]].[CC(C)CC[C@@H](C(=O)O)N(C)[*:1]]}$$$$V2.0)
### Response 1

### Prompt Look up inhibition: CCC[C@H](NC(=O)[C@H](CCCNC(=N)N)NC(=O)[C@@H]1CCCN1C(=O)[C@@H](N)CCCNC(=N)N)C(=O)N[C@@H](Cc1ccc(O)cc1)C(=O)N[C@@H](CN)C(=O)N(C)[C@@H](CCC(C)C)C(N)=O (HELM PEPTIDE1{R.P.R.[Nva].Y.[NC[C@H](N[*:1])C(=O)[*:2]].[CC(C)CC[C@@H](C(=O)[*:2])N(C)[*:1]].[am]}$$$$V2.0)
### Response 86

###

Target: RAC-alpha serine/threonine-protein kinase (Homo sapiens, UniProt P31749)
Sequence (P31749 whole entry): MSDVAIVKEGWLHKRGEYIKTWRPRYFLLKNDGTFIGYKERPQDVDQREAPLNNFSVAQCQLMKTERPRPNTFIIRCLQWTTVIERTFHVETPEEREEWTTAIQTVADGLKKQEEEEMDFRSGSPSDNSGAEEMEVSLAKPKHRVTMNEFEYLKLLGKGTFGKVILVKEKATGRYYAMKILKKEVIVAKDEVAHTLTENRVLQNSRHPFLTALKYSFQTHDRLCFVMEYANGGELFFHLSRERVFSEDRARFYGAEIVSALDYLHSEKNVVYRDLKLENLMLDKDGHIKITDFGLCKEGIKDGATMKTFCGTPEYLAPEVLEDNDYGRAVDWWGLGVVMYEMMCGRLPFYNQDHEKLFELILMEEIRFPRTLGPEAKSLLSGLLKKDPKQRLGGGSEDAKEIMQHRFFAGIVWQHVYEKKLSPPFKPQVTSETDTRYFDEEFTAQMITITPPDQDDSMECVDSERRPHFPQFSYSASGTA
Test: Inhibition of PKB at 5 uM by radioactive kinase assay relative to control
Square brackets hold non-standard residues; d marks the D form. Peptide text beside a SMILES is read from it. Gly(N-(CH2)3-guanidino) = N=C(N)NCCCNCC(=O)O; hLeu = CC(C)CC[C@H](N)C(=O)O; Nva = CCC[C@H](N)C(=O)O; Dap = NC[C@H](N)C(=O)O
Binary call on inhibition: yes (1) from 50% upward, no (0) beneath that.

### Prompt Record `CCC[C@H](NC(=O)[C@H](CCCNC(=N)N)NC(=O)[C@@H]1CCCN1C(=O)[C@H](CCCNC(=N)N)NC(=O)[C@@H](N)CCCCN)C(=O)N[C@@H](Cc1ccc(O)cc1)C(=O)N[C@@H](CN)C(=O)N[C@@H](CCC(C)C)C(N)=O` ; criterion: inhibition no lower than 50%. Met?
### Response yes (1)

### Prompt Record CCC[C@H](NC(=O)[C@H](CCCNC(=N)N)N(C)C(=O)[C@@H]1CCCN1C(=O)[C@@H](N)CCCNC(=N)N)C(=O)N[C@@H](Cc1ccc(O)cc1)C(=O)N[C@@H](CN)C(=O)N[C@@H](CCC(C)C)C(N)=O (HELM PEPTIDE1{R.P.[meR].[Nva].Y.[NC[C@H](N[*:1])C(=O)[*:2]].[CC(C)CC[C@H](N[*:1])C(=O)[*:2]].[am]}$$$$V2.0) ; criterion: inhibition no lower than 50%. Met?
### Response no (0)

### Prompt Record CCC[C@H](NC(=O)[C@H](CCCNC(=N)N)NC(=O)[C@@H]1CCCN1C(=O)[C@H](CCCNC(=N)N)NC(=O)[C@H](CCCCN)NC(C)=O)C(=O)N[C@@H](Cc1ccc(O)cc1)C(=O)N[C@@H](CN)C(=O)N[C@@H](CCC(C)C)C(N)=O (HELM PEPTIDE1{[ac].K.R.P.R.[Nva].Y.[NC[C@H](N[*:1])C(=O)[*:2]].[CC(C)CC[C@H](N[*:1])C(=O)[*:2]].[am]}$$$$V2.0) ; criterion: inhibition no lower than 50%. Met?
### Response yes (1)

### Prompt Record CCC[C@H](NC(=O)[C@H](CCCNC(=N)N)NC(=O)[C@@H]1CCCN1C(=O)CNCCCNC(=N)N)C(=O)N[C@@H](Cc1ccc(O)cc1)C(=O)N[C@@H](CN)C(=O)N[C@@H](CCC(C)C)C(N)=O (H-[Gly(N-(CH2)3-guanidino)]PR[Nva]Y[Dap][hLeu]-NH2) ; criterion: inhibition no lower than 50%. Met?
### Response no (0)

### Prompt Record CCC[C@H](NC(=O)[C@H](CCCNC(=N)N)NC(=O)[C@@H]1CCCN1C(=O)[C@@H](N)CCCNC(=N)N)C(=O)N(C)[C@@H](Cc1ccc(O)cc1)C(=O)N[C@@H](CN)C(=O)N[C@@H](CCC(C)C)C(N)=O (HELM PEPTIDE1{R.P.R.[Nva].[meY].[NC[C@H](N[*:1])C(=O)[*:2]].[CC(C)CC[C@H](N[*:1])C(=O)[*:2]].[am]}$$$$V2.0) ; criterion: inhibition no lower than 50%. Met?
### Response no (0)

### Prompt Record `CCC[C@H](NC(=O)[C@H](CCCNC(=N)N)NC(=O)[C@@H]1CCCN1C(=O)[C@H](CCCNC(=N)N)NC(=O)[C@@H](N)CCCNC(=N)N)C(=O)N[C@@H](Cc1ccc(O)cc1)C(=O)N[C@@H](CN)C(=O)N[C@@H](CCC(C)C)C(N)=O` ; criterion: inhibition no lower than 50%. Met?
### Response yes (1)
